Source: PubChem BioAssay (NCI)

Tested on: K-562 leukemia
assay: NCI-60 one-dose screen, 48 h
assay-context: 10 µM unless noted
The panel holds about 83,000 compounds, 20% with a hit somewhere; the sample as a whole holds those more often. Active and inactive are the calls of the source. The calls were made as follows: active = growth percent below 10; inactive = the rest.
Outcomes: active, inactive

# compound, group-label
data = [
    ("COc1ccc(C2=NN(C(C)=O)C(c3cn(Cc4ccc(Cl)cc4)c4ccccc34)C2)cc1 (stereo unspecified)", "inactive"),
    ("CCNC(=S)NNC(=O)c1cc2ccc1CCc1ccc(cc1)CC2", "inactive"),
    ("COc1ccc(-c2ncc(-c3ccccc3)[nH]2)cc1OC", "inactive"),
    ("CC1CCN(C(=O)OCc2nc3nc(Cl)nc(N4CCOCC4)c3[nH]2)CC1", "active"),
    ("CCN(CC)S(=O)(=O)c1cccc([N+](=O)[O-])c1", "inactive"),
    ("CCCCCCc1nc2nc(Cl)c(Cl)nc2[nH]1", "inactive"),
    ("CCCCCCCCCCCCCCCC(=O)OC[C@@]1(O)C[C@@]23CC[C@@H]4C(C)(C)CCC[C@@]4(C)[C@@H]2CC[C@H]1C3", "inactive"),
    ("COc1cc2nc(-c3ccc(C(F)(F)F)cc3)cc(OCCCN3CCCCC3)c2cc1OC", "inactive"),
    ("COc1ccccc1OCC(=O)N1CCCCCC1", "inactive"),
    ("COc1cc(NCC(O)CN(CC(C)C)CC(C)C)c2nc(C)ccc2c1 (stereo unspecified)", "inactive"),
    ("CCOC(=O)c1ccc(Nc2ccnc(SCC(=O)c3ccc(C#N)cc3)n2)cc1", "inactive"),
    ("COc1ccc(-c2nc(SCC(C)C)nc(N/N=C(/C)c3ccc(OC)c(OC)c3)c2C#N)cc1", "inactive"),
    ("CCCCCN1C=C/C(=C\\C(=O)N(C)c2cccc3ccccc23)c2ccccc21", "inactive"),
    ("CN1CCN(Cc2ccc(NC(=O)c3cncc(C#Cc4cnccc4C(F)(F)F)c3)cc2C(F)(F)F)CC1", "active"),
    ("CCCCCCCCCCCCCCCC(=O)OC[C@@]1(O)C[C@@]23CC[C@@H]4C(C)(C)[C@H](O)CC[C@@]4(C)[C@@H]2CC[C@H]1C3", "inactive"),
    ("CCN(CC)CCCC(C)Nc1cc(-c2cccc(OC(F)(F)F)c2)nc2ccc(N3CCCC3)cc12 (stereo unspecified)", "active"),
    ("CCN(CC)CCCC(C)Nc1c2c(nc3ccc(OC)cc13)CCCC2 (stereo unspecified)", "inactive"),
    ("COc1ccc(C(=O)/C=C/c2cn(Cc3ccc(Cl)cc3)c3ccccc23)cc1", "inactive"),
    ("Cc1c2c(cc[n+]1Cc1ccc(F)cc1)c1ccc(OCc3cccc(F)c3)cc1n2Cc1cccc(F)c1", "active"),
    ("CC(=O)OC1CCC2(C)C(CCC3C4CC=C(C(C)=O)C4(C)OC(=O)CC32)C1 (stereo unspecified)", "active"),
    ("Cc1cc(C(=O)Nc2ncnc3nc[nH]c23)no1", "inactive"),
    ("CCSc1ccc2c(c1)N(CCCN1CCN(C)CC1)c1ccccc1S2", "active"),
    ("COc1cc(Nc2cc(O)c3c(=O)cc(-c4ccccc4)oc3c2)cc(OC)c1", "inactive"),
    ("O=c1[nH]nc(-c2ccc(Br)cc2)cc1Cc1ccc(O)cc1", "inactive"),
    ("COc1ccc(Cl)cc1NC(=O)c1c(NC(=O)C(F)(F)C(F)(F)F)sc2c1CCCCC2", "inactive"),
    ("CCn1ccnc1C(=O)/C=C/c1ccc(CC(=O)Nc2ccc(F)cc2)cc1", "active"),
    ("COc1ccc(-c2cnnc3c(-c4cccc(C(F)(F)F)c4)cnn23)cc1", "inactive"),
    ("O=C(N/N=C/c1ccncc1)c1ccccc1Nc1cccc(C(F)(F)F)c1", "inactive"),
    ("NC(=O)c1cccc(-n2ccc3cc(NC(=O)Nc4cc(C(F)(F)F)cc(C(F)(F)F)c4)ccc32)n1", "inactive"),
    ("Fc1ccc(-n2cc(COc3ncnc4sc5c(c34)CCCC5)nn2)cc1Cl", "inactive"),
    ("CC(=O)c1c(-c2ccc(OC(F)(F)F)cc2)nc2ccccn12", "inactive"),
    ("COc1ccccc1/C=C1\\COc2ccc(-c3ccccc3)cc2C1=O", "active"),
    ("CCCCCCCCN1C(=O)/C(=c2\\sc3n(c2=O)C2C(NN=3)N(CC)C(=O)N2CC)c2ccccc21 (stereo unspecified)", "inactive"),
    ("COc1cc(C2CC(c3cccc(Nc4ccncc4)c3)=NN2c2cc(Cl)cc(Cl)c2)cc(OC)c1OC (stereo unspecified)", "active"),
    ("C#CC(=O)Nc1cccc2c1cc(C)n2-c1nc2c(c(NCc3ccccc3)n1)CCCC2", "active"),
    ("Cc1ccccc1CNc1ccc(N2CCOCC2)cc1", "inactive"),
    ("CN(C)c1ccc(-c2c(C#N)c(N)n3nc(N)c(C#N)c3c2C#N)cc1", "inactive"),
    ("C#Cc1cccc(NC(=O)Nc2cccc(N=C=S)c2)c1", "inactive"),
    ("Cc1nc2sc(C(=O)Nc3cccc(Br)c3)c(N)c2cc1C(=O)c1ccc(C(F)(F)F)cc1", "inactive"),
    ("Cc1cccc(C)c1-c1cc(Cc2ccc(Cl)cc2)c(=O)[nH]n1", "inactive"),
    ("Cc1[nH]n(C(=O)c2ccncc2)c(=O)c1N=Nc1ccc(F)c(Cl)c1", "inactive"),
]

---

Test system: ACHN renal
assay: NCI-60 one-dose screen, 48 h (100 = growth as untreated, 0 = no growth, -100 = all killed)
assay-context: 10 µM unless noted
Protocol: Growth inhibition of the ACHN human tumor cell line is measured as a screen for anti-cancer activity. Cells are grown in 96 well plates and exposed to the test compound for 48 hours. Compounds are tested at a single concentration, which is 10^-5 M for most compounds. The reported endpoint is percent growth (GI% or GIPRCNT), where numbers from 0 - 100% represent growth inhibition, and numbers from -100% - 0 represent cell death. For example, a value of 40 represents 60% growth inhibition. […]
About 83,000 compounds went through this panel and 20% of them were active in at least one assay; those are over-represented in the sample as a whole.
# reported growth; entries follow
reported-metric: growth (%)

# molecule, reported-metric, unit-name, result-value
measured = [
    ("COc1ccc(-c2nc(N=Nc3c(O)[nH]c4ccccc34)nc(N3CCOCC3)c2C#N)cc1", "growth", "%", 25),
    ("COc1ccc(-c2nc(N/N=C/c3cccc(Br)c3)nc(N3CCOCC3)c2C#N)cc1", "growth", "%", 54.6),
    ("COc1cccc(CCC(=O)c2cc3c(N)c(C(=O)Nc4ccccc4)sc3nc2C)c1", "growth", "%", 56.3),
    ("CC(=O)OC1CCC2(C)C(CCC3C4CC=C(C(C)=O)C4(C)OC(=O)CC32)C1 (stereo not given)", "growth", "%", 7.04),
    ("CS(=O)(=O)OCCN(CCOS(C)(=O)=O)c1ccc(/C=N/Nc2ccc([N+](=O)[O-])cc2[N+](=O)[O-])cc1", "growth", "%", 84.6),
    ("COc1ccc(C(=O)c2cc3c(N)c(C(=O)Nc4ccc(Cl)cc4)sc3nc2C)cc1", "growth", "%", 74.7),
    ("C#CC(=O)Nc1cccc(Nc2nc3c(c(NCc4ccccc4)n2)CCCC3)c1", "growth", "%", -93.5),
    ("CC1CCN(C(=O)OCc2nc3nc(Cl)nc(N4CCOCC4)c3[nH]2)CC1", "growth", "%", -100),
    ("O=CNc1cc(Cl)cc(Cl)c1", "growth", "%", 101),
    ("CCOC(=O)N1CCN(CCCCl)CC1", "growth", "%", 97.4),
    ("C=C1C(=O)O[C@H]2[C@H]1CC/C(COC(=O)CCCCCC(=O)OC/C1=C/CC[C@@]3(C)O[C@H]3[C@H]3OC(=O)C(=C)[C@@H]3CC1)=C\\CC[C@@]1(C)O[C@@H]21", "growth", "%", -25.7),
    ("CC(=O)OCCCCCNc1ccccc1", "growth", "%", 101),
    ("NC(=O)c1cccc(-n2ccc3cc(NC(=O)Nc4cc(C(F)(F)F)cc(C(F)(F)F)c4)ccc32)n1", "growth", "%", 39.9),
    ("Cc1cn(-c2cc(C(=O)Nc3cccc(C#Cc4cccc5[nH]nc(N)c45)c3)cc(C(F)(F)F)c2)cn1", "growth", "%", 30.3),
    ("CC(O)/C=C/C=C/C(O)CC/C=C/C(=O)NCC(C)(C)O (stereo not given)", "growth", "%", 106),
    ("CCCc1cc2c(cc1Br)OCO2", "growth", "%", 105),
    ("O=[N+]([O-])c1cccc(-c2nc(-c3ccc(Cl)cc3Cl)cn2-c2ccccc2)c1", "growth", "%", -52.1),
    ("CCCCCCCCOc1ccc(/C=N/Nc2cc(C)nc3ccc(Cl)cc23)cc1", "growth", "%", -1.15),
    ("Cc1ccc2[nH]c(=O)cc(-n3nncc3COc3ccc(C=O)cc3)c2c1", "growth", "%", 98.9),
    ("C=C1C(=O)O[C@H]2[C@H]1CC/C(CNC(=O)/C=C/c1ccc(Br)cc1)=C\\CC[C@@]1(C)O[C@@H]21", "growth", "%", -58.6),
]
